Origin of the recorded values: paper PMC12155096

target-system: UniProt:P10635
experiment: biochemical
particulars: CYP2D6 AC50 (half-maximal activity concentration)
Recorded AC50 values for a group of molecules are listed next.
Reply with just the number (in µM).

- O=C1NC2CCCCN2C12CCN(CCCN1c3ccccc3CCc3ccc(Cl)cc31)CC2 (stereo not drawn): 6.53
- Oc1cc(Cl)c(Cl)c(Cl)c1: 29
- Oc1c(I)cc(I)cc1I: 80.7
- O=c1[nH]c2ccccc2n1CCCN1CCN(C(c2ccccc2)c2ccccc2)CC1 [Oxatomide]: 0.62
- CC(C)[N+](C)(CCOC(=O)C1c2ccccc2Oc2ccccc21)C(C)C [Propantheline bromide]: 0.19

Next molecule, AC50 to be filled in.
Q: Which AC50 value is on record for COc1ccc(C(=O)c2ccc(C)cc2)c(O)c1 ?
A: 56.1

----------
target-system: human CYP1A2 (Homo sapiens, UniProt P05177)
Sequence (P05177 whole entry): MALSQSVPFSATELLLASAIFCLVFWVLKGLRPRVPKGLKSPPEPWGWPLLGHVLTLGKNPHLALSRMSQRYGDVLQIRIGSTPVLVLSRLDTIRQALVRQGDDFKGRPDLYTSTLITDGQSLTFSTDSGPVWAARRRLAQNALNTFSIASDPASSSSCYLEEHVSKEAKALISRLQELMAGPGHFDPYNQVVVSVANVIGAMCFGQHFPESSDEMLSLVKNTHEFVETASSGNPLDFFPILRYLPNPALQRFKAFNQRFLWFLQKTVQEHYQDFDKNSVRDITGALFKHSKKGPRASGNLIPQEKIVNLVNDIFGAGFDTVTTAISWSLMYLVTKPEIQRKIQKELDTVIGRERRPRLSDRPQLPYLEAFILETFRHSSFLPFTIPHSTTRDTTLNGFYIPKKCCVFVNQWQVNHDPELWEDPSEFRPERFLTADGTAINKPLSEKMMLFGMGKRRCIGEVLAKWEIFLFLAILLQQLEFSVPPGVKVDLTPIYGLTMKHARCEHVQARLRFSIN
experiment: biochemical
particulars: CYP1A2 AC50 (half-maximal activity concentration)
Recorded AC50 values for a group of compounds are listed next.
Please answer using a numeric value trailed by its unit.

Solved entries (count: 2):
* CCOC(=O)NC(C)(C)Cc1ccc(Cl)cc1 | 7.64 µM
* O=C(O)c1cc(Cl)cc(Cl)c1 | 57.8 µM

Q: Which AC50 value is on record for CC=CC(=O)N(CC)c1ccccc1C (mixture of isomers) ?
A: 31.4 µM

Q: Which AC50 value is on record for Brc1ccccc1-c1ccccc1 ?
A: 17 µM

Q: Which AC50 value is on record for O=[N+]([O-])C(Br)(CO)CO ?
A: 14.2 µM

Q: Which AC50 value is on record for COC(=O)c1ccc(O)cc1 ?
A: 20.8 µM

Q: Which AC50 value is on record for NC(=O)Cc1cccc(C(=O)c2ccccc2)c1N ?
A: 14.4 µM

----------
Lab note: AC50 readings collected with human CYP1A2 (Homo sapiens, UniProt P05177) for the following molecules.
Reply with just the number (in µM).

Q: Which AC50 value is on record for c1ccc(SCCSc2ccccc2)cc1 ?
A: 29.2

----------
target-system: human CYP1A2 (Homo sapiens)
parameter: CYP1A2 AC50 (half-maximal activity concentration)

* CCCCCCCCCCCCCC[P+](CCCC)(CCCC)CCCC.CCCCCCCCCCCCc1ccc(S(=O)(=O)[O-])cc1 | Inconclusive inhibitor
* CCCCCCCCCCCCCCCCC(C(=O)O)C(O)(CC(=O)O)C(=O)O (stereo not shown) [Agaric acid] | Inactive
* O=C(CCCN1CCN(c2ccccn2)CC1)c1ccc(F)cc1 [Azaperone] | Inactive
* C[C@]12CC[C@H]3[C@@H](CCC4=CC(=O)CC[C@@]43C)[C@@H]1CC[C@@H]2C(=O)O [Etienic acid] | Inactive
* CC(C)COC(=O)CCCCC(=O)OCC(C)C [Diisobutyl adipate] | Inconclusive inhibitor
* O=c1[nH]c2ccccc2n1C1CCN(CCCC(c2ccc(F)cc2)c2ccc(F)cc2)CC1 [Pimozide] | Inactive

Next compound, CYP1A2 AC50 (half-maximal activity concentration) to be filled in.
Q: Under human CYP1A2 (Homo sapiens): CYP1A2 AC50 (half-maximal activity concentration) value of CCCCCCCCc1ccc(S(=O)(=O)[O-])cc1.[Na+] [Sodium 4-octylbenzenesulfonate] ?
A: Inactive

----------
Recorded IC50 values for a group of molecules are listed next.
target-system: human CYP2D6 (Homo sapiens)
Sequence (P10635 whole entry): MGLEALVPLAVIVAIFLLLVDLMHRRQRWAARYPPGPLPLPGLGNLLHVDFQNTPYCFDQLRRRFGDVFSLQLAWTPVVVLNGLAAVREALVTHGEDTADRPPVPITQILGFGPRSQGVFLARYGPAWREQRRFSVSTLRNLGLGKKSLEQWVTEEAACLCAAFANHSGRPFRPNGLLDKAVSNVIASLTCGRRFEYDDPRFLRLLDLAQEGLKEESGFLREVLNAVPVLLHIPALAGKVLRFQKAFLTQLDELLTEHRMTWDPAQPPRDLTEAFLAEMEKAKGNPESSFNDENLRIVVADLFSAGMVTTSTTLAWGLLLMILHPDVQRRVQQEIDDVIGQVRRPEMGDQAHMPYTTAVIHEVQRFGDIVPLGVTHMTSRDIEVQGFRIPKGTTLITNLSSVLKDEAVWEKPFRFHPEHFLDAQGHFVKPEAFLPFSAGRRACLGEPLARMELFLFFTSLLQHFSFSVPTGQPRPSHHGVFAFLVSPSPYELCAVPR
experiment: biochemical
particulars: CYP2D6 IC50
Please answer using a numeric value trailed by its unit.

Solved entries (count: 2):
- [O-][n+]1ccccc1SSc1cccc[n+]1[O-]: 1660 nM
- CN1CCCN(C(c2ccccc2)c2ccc(Cl)cc2)CC1 (stereo not drawn): 380 nM

Q: Which IC50 value is on record for CN1CC2c3ccccc3Oc3ccc(Cl)cc3C2C1 (stereo not drawn) ?
A: 90 nM

Q: Which IC50 value is on record for c1ccc2sc(SN(C3CCCCC3)C3CCCCC3)nc2c1 ?
A: 560 nM

Q: Which IC50 value is on record for Cc1ccccc1NC(=N)Nc1ccccc1C ?
A: 10 nM

Q: Which IC50 value is on record for CC1=C(C)C(=O)C(CCCCC#CCCCC#CCO)=C(C)C1=O ?
A: 25800 nM
